test system: Bacteroides thetaiotaomicron; experiment: growth AUC relative to DMSO control (median of replicates) (fraction); higher = more growth (less inhibition), active = hit call of the paper; conditions: 20 µM; 24 h
Known growth AUC of a selection of compounds

compound: CCN(CC)C(=O)SCc1ccccc1Cl
growth AUC: 0.983

compound: CCOC(=O)c1ccc(O)cc1
growth AUC: 0.991

compound: C#CC(C)N(C)C(=O)Nc1ccc(Cl)cc1 (configuration not stated)
growth AUC: 1

compound: CC(C)OC(=O)c1cc(C(=O)OC(C)C)cc([N+](=O)[O-])c1
growth AUC: 0.933

compound: c1ccc(Sc2ccccc2)cc1
growth AUC: 0.982

compound: C#CCN(C)c1c(C#N)cnn1-c1nn2c(c1Cl)CCCC2
growth AUC: 0.933

compound: O=C1NCCN1
growth AUC: 1.02

compound: CN(C(=O)NC(C)(C)c1ccccc1)c1ccccc1
growth AUC: 1.01

compound: CCNC(=O)[C@@H](C)OC(=O)Nc1ccccc1
growth AUC: 1.01

compound: O=S(=O)(Oc1ccc(Cl)cc1)c1ccccc1
growth AUC: 0.964

compound: NC(=O)c1nn(-c2c(Cl)cc(C(F)(F)F)cc2Cl)c(N)c1S(=O)C(F)(F)F (configuration not stated)
growth AUC: 0.972

compound: CC(C)c1cccc2c(=O)c3ccccc3sc12
growth AUC: 0.963

* * *

tested on: Eubacterium rectale; test: growth AUC relative to DMSO control (median of replicates) (fraction); higher = more growth (less inhibition), active = hit call of the paper; settings: 20 µM; 24 h;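 active = AUC reduced over 20% with Padj below 0.05 in at least 2 of 3 replicates; inactive = otherwise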
Outcomes: active, inactive

molecule: O.O=C(Nc1ccc([N+](=O)[O-])cc1Cl)c1cc(Cl)ccc1O
qualitative.label: inactive

molecule: CC(C)N(C(=O)CS(=O)(=O)[O-])c1ccc(F)cc1.[Na+]
qualitative.label: inactive

molecule: CCOc1ccc(NC(=O)OC(C)C)cc1OCC
qualitative.label: inactive

molecule: CCSC(=O)N(CC(C)C)CC(C)C
qualitative.label: inactive

molecule: S=C([S-])NCCNC(=S)[S-].S=C([S-])NCCNC(=S)[S-].[Mn+2].[Zn+2]
qualitative.label: inactive

molecule: COC(=O)c1ccc(C)cc1C1=NC(C)(C(C)C)C(=O)N1 (racemic)
qualitative.label: inactive

molecule: CCc1cccc(C)c1N(COC(C)C)C(=O)CCl
qualitative.label: inactive

molecule: Cc1[nH]n(C)c(=O)c1C(=O)c1ccc(C(F)(F)F)cc1S(C)(=O)=O
qualitative.label: inactive

molecule: CCc1cccc(CC)c1N(COC)C(=O)CS(=O)(=O)[O-].[Na+]
qualitative.label: inactive

molecule: CCN(CC)C(=O)c1cccc(C)c1
qualitative.label: inactive

molecule: CCOC(=O)c1ccc(O)cc1
qualitative.label: inactive

molecule: COc1cc(OC)nc(NC(=O)NS(=O)(=O)Nc2ccccc2C(=O)C2CC2)n1
qualitative.label: inactive

molecule: COc1nc(N)nc(C(F)(F)F)n1
qualitative.label: inactive

molecule: CCC(C)c1cc([N+](=O)[O-])cc([N+](=O)[O-])c1OC(=O)OC(C)C (stereo not drawn)
qualitative.label: inactive

molecule: O=C1NC(=O)c2ccccc21
qualitative.label: inactive

molecule: COC1CCC2(CC1)NC(=O)C(O)(c1cc(C)ccc1C)C2=O (stereo not drawn)
qualitative.label: inactive

molecule: CCOC(=O)CSc1nc(C(C)(C)C)nn1C(=O)N(C)C
qualitative.label: inactive

molecule: CC(C)OC(=O)c1cc(C(=O)OC(C)C)cc([N+](=O)[O-])c1
qualitative.label: inactive

molecule: CC(C)c1cc(Oc2ccccc2)cc(C(C)C)c1NC(=S)NC(C)(C)C
qualitative.label: active

molecule: CCNc1nc(NC(C)CC)nc(OC)n1 (stereo not drawn)
qualitative.label: inactive

molecule: COC(=O)CCCOc1ccc(Cl)cc1Cl
qualitative.label: inactive

molecule: NC(=O)Cc1cccc2ccccc12
qualitative.label: inactive

molecule: Nc1nc2ccccc2[nH]1
qualitative.label: inactive

molecule: Oc1ccccc1
qualitative.label: inactive

molecule: c1ccc2c(c1)-c1cccc3c1c-2cc1ccccc13
qualitative.label: inactive

molecule: CCNc1nc(Cl)nc(N(CC)CC)n1
qualitative.label: inactive

molecule: CN(C)C(=O)Nc1ccc(Cl)c(Cl)c1
qualitative.label: inactive

molecule: Oc1c(Cl)cc(Cl)c(Cl)c1Cc1c(O)c(Cl)cc(Cl)c1Cl
qualitative.label: active

molecule: NC(=O)c1c(Cl)cccc1Cl
qualitative.label: inactive

molecule: CCOC(=O)Cc1[nH]nc2ccc(Cl)cc12
qualitative.label: inactive

molecule: COC(=O)COc1ccc(Cl)cc1C
qualitative.label: inactive

molecule: CC(C)CCCCCOC(=O)C(C)Oc1ccc(Cl)cc1Cl (stereo not drawn)
qualitative.label: inactive

molecule: O=S(=O)(Cc1ccc(Cl)cc1)c1ccc(Cl)cc1
qualitative.label: inactive

molecule: CON=C(Cc1cccnc1)c1ccc(Cl)cc1Cl
qualitative.label: inactive

molecule: Clc1ccc(Sc2cc(Cl)c(Cl)cc2Cl)cc1
qualitative.label: inactive

molecule: Cn1cc(C(=O)Nc2ccccc2-c2cc(F)c(F)c(F)c2)c(C(F)F)n1
qualitative.label: inactive

molecule: CCCCOCCOC(=O)COc1nc(Cl)c(Cl)cc1Cl
qualitative.label: inactive

molecule: Cc1cc(CC(C)CC(C)(C)C)n(O)c(=O)c1.NCCO (stereo not drawn)
qualitative.label: inactive

molecule: NC(=S)Nc1cccc2ccccc12
qualitative.label: inactive

molecule: CC(C)(NC(=O)NCc1ccccc1Cl)c1ccccc1
qualitative.label: inactive

molecule: CCC([O-])=C1C(=O)CC(C(=O)[O-])CC1=O.[Ca+2] (stereo not drawn)
qualitative.label: inactive

molecule: COCC(=O)N(c1c(C)cccc1C)C(C)C(=O)O (stereo not drawn)
qualitative.label: inactive

molecule: CCCCOCCOCCOCc1cc2c(cc1CCC)OCO2
qualitative.label: inactive

molecule: C=CCO/N=C(\CCC)C1=C([O-])CC(C)(C)C(C(=O)OC)C1=O.[Na+] (stereo not drawn)
qualitative.label: inactive

molecule: O=C(O)Cc1cccc2ccccc12
qualitative.label: inactive

molecule: c1ccc(CNc2ncnc3nc[nH]c23)cc1
qualitative.label: inactive

molecule: CCS(=O)(=O)c1nnc(N(C)C(=O)NC)s1
qualitative.label: inactive

molecule: CC(C)(C)[C@@H](O)[C@@H](Cc1ccc(Cl)cc1)n1cncn1 (mixture of isomers)
qualitative.label: inactive
